Target: RIPK1 (Homo sapiens)
Construct: endogenous in cells
Sequence (Q13546 1-671): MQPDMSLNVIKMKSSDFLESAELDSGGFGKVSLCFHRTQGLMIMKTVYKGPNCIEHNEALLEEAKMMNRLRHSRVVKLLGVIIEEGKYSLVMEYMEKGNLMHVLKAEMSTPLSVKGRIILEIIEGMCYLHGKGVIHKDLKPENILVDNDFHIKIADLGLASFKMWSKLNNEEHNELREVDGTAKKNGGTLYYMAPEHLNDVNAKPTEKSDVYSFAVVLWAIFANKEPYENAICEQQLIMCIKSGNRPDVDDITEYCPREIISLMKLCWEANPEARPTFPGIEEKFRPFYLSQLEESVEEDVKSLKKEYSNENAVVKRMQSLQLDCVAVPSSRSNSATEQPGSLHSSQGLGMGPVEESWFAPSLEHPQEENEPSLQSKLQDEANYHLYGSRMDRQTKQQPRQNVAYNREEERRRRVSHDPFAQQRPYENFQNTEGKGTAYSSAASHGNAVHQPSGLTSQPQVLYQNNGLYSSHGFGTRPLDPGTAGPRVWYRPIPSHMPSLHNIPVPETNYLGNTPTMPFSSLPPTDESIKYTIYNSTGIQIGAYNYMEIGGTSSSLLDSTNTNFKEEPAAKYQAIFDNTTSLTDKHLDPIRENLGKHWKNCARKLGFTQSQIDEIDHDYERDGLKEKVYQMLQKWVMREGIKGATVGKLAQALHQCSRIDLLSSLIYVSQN
Assay: RIPK1 degradation Western Blot assay
Assay type: cell-based
Conditions: human cells, 24 h incubation at 37° C., read-out: Degradation Activity (DC50, concentration at which 50% of RIPK1 kinase has been degraded)
Measurement kind: DC50

Previously resolved entries follow.
Compound	Experimental system	Recorded result
Nc1ncnc2c1c(-c1ccc3c(c1)CCN3C(=O)Cc1cccc(OC(F)(F)F)c1)cn2CCCNC(=O)c1ccc(C#Cc2ccc(N3CCN(C(=O)CN4CCC(c5ccc(NC6CCC(=O)NC6=O)cc5)CC4)CC3)nc2)cc1 (centres unmarked)	RIPK1 (Homo sapiens)	< 1000 nM
Nc1ncnc2c1c(-c1ccc3c(c1)CCN3C(=O)Cc1cccc(OC(F)(F)F)c1)cn2CCCNC(=O)CCCCNC(=O)CN1CCC(c2ccc(NC3CCC(=O)NC3=O)cc2)CC1 (centres unmarked)	RIPK1 (Homo sapiens)	< 1000 nM
O=C1CCC(N2C(=O)c3cccc(NCCOCCOCCOCCNC(=O)c4ccnc(N5CCC(C(=O)N6N=CCC6c6ccccc6)CC5)n4)c3C2=O)C(=O)N1 (centres unmarked)	RIPK1 (Homo sapiens)	1000 to 10000 nM

Q) For the compound Cc1ncsc1-c1ccc([C@H](C)NC(=O)[C@@H]2C[C@@H](O)CN2C(=O)[C@@H](NC(=O)CCCCCCCCNC(=O)c2ccc(-c3cc(N4CCC(C(=O)N5N=CCC5c5ccccc5)CC4)ncn3)cc2)C(C)(C)C)cc1 (some centres unmarked) , report DC50.
A) > 10000 nM

Q) For the compound Cn1c(=O)n(C2CCC(=O)NC2=O)c2ccc(CCC(=O)N3CCN(c4ccc(C#Cc5ccc(C(=O)NCCCn6cc(-c7ccc8c(c7)CCN8C(=O)Cc7cccc(OC(F)(F)F)c7)c7c(N)ncnc76)cc5)cn4)CC3)cc21 (centres unmarked) , report DC50.
A) < 1000 nM
